This collection of values is drawn from ChEMBL document CHEMBL2380248.

Each entry below carries its measured pKi, system: Matrix metalloproteinase-14 (Homo sapiens).
Answers are plain numbers, as −log10 of the molar value.

// known answers, use as guide
Cl.NCCCCCC(=O)N1C[C@H](NS(=O)(=O)c2ccc(Oc3ccccc3)cc2)[C@@H](S)C1 (racemic) ... 8.18
CNC(=O)[C@H](Cc1ccccc1)NC(=O)[C@@H](CC(C)C)S[C@H]1CN(C(C)=O)C[C@H]1S (mixture of isomers) ... 8.21
O=S(=O)(N[C@H]1CCC[C@@H]1S)c1ccc(-c2ccccc2)cc1 (racemic) ... 5.92

Please report pKi for every entry that follows.
1. CNC(=O)[C@H](Cc1ccccc1)NC(=O)[C@@H](CC(C)C)S[C@H]1CN(C(=O)CCCCCN2C(=O)c3ccccc3C2=O)C[C@H]1S (mixture of isomers)
2. NCCCCCC(=O)N1C[C@H](NS(=O)(=O)c2ccc(Oc3ccccc3)cc2)[C@@H](O)C1 (racemic)
3. O=S(=O)(N[C@@H]1CCC[C@H]1S)c1ccc(Oc2ccccc2)cc1
4. CNC(=O)[C@H](Cc1ccccc1)NC(=O)[C@@H](CC(C)C)S[C@H]1CNC[C@H]1S (mixture of isomers)

[8.15, 4.07, 8.00, 6.51]

----------
target or test system: 72 kDa type IV collagenase (Homo sapiens)
Sequence (P08253 whole entry): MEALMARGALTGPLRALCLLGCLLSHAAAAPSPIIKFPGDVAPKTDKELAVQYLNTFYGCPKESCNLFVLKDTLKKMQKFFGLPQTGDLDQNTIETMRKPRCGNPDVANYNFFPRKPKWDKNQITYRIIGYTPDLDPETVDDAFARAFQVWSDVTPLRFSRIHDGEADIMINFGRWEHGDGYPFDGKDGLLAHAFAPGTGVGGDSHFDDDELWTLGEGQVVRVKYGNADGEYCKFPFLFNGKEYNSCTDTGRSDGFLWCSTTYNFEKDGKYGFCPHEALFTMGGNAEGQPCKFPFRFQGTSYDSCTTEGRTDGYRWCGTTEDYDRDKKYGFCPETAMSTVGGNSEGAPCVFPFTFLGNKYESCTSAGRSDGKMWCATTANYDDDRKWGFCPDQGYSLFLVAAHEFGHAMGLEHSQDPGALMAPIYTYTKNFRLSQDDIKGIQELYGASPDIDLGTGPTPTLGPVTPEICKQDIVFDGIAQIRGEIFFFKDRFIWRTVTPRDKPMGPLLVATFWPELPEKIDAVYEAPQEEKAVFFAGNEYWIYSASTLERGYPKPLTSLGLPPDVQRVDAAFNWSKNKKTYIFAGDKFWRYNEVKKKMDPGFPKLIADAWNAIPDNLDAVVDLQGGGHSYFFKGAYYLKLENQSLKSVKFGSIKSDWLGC
quantity name: pKi
Answers are plain numbers, as −log10 of the molar value.

O=S(=O)(N[C@H]1CCC[C@@H]1S)c1ccc(Oc2ccccc2)cc1 (racemic) ... 7.74
O=S(=O)(N[C@@H]1CCC[C@@H]1S)c1ccc(Oc2ccccc2)cc1 ... 4.60
CNC(=O)[C@H](Cc1ccccc1)NC(=O)[C@@H](CC(C)C)S[C@H]1CN(C(=O)CN2C(=O)c3ccccc3C2=O)C[C@H]1S (mixture of isomers) ... 7.77
O=C(N[C@H]1CCC[C@@H]1S)c1ccc(Oc2ccccc2)cc1 (racemic) ... 5.24
CNC(=O)[C@H](Cc1ccccc1)NC(=O)[C@@H](CC(C)C)S[C@H]1CN(C(=O)CCCCCN2C(=O)c3ccccc3C2=O)C[C@H]1S (mixture of isomers) ... 8.77

Please report pKi for every entry that follows.
1. O=S(=O)(N[C@H]1CCC[C@@H]1S)c1ccc(-c2ccccc2)cc1 (racemic)
2. O=S(=O)(N[C@H]1CCC[C@H]1S)c1ccc(Oc2ccccc2)cc1

1. 6.62
2. 6.37

----------
Each entry below carries its measured pKi, system: Matrix metalloproteinase-14 (Homo sapiens, UniProt P50281).
Answers are plain numbers, as −log10 of the molar value.

// known answers, use as guide
O=S(=O)(N[C@H]1CCC[C@@H]1S)c1ccc(Oc2ccccc2)cc1 ... 7.51
CNC(=O)[C@H](Cc1ccccc1)NC(=O)[C@@H](CC(C)C)S[C@H]1CN(C(=O)CN2C(=O)c3ccccc3C2=O)C[C@H]1S (mixture of isomers) ... 7.15

// sample O=S(=O)(N[C@@H]1CCC[C@@H]1S)c1ccc(Oc2ccccc2)cc1 (racemic) , its pKi was 6.39

----------
target or test system: Collagenase 3 (Homo sapiens, UniProt P45452)
quantity name: pKi
Answers are plain numbers, as −log10 of the molar value.

Please report pKi for every entry that follows.
1. O=S(=O)(N[C@H]1CCC[C@H]1S)c1ccc(Oc2ccccc2)cc1
2. O=S(=O)(N[C@H]1CCC[C@@H]1S)c1ccc(Oc2ccccc2)cc1 (racemic)
3. O=S(=O)(N[C@H]1CCC[C@@H]1S)c1ccccc1 (racemic)

1: 6.80; 2: 7.82; 3: 5.47

// sample O=C(N[C@H]1CCC[C@@H]1S)c1ccc(Oc2ccccc2)cc1 (racemic) , its pKi was 4.55

----------
Each entry below carries its measured Ki, system: Stromelysin-1 (Homo sapiens, UniProt P08254).
Sequence (P08254 whole entry): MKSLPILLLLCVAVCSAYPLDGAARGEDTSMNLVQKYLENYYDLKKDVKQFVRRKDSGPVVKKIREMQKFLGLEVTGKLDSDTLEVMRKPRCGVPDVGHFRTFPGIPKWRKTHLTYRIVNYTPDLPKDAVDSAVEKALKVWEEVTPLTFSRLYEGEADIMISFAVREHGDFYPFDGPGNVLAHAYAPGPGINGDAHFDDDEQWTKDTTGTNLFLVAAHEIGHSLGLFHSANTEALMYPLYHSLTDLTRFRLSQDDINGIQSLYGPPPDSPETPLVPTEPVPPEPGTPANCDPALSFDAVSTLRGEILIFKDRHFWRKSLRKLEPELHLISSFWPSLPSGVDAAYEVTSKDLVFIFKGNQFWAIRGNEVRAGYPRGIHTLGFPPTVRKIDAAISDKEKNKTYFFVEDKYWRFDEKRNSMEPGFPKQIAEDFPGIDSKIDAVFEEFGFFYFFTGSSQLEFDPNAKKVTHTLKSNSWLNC

Please report Ki for every entry that follows.
1. NCCCCCC(=O)N1C[C@H](NS(=O)(=O)c2ccc(Oc3ccccc3)cc2)[C@@H](O)C1 (racemic)
2. CNC(=O)[C@H](Cc1ccccc1)NC(=O)[C@@H](CC(C)C)S[C@H]1CN(C(=O)CCCN2C(=O)c3ccccc3C2=O)C[C@H]1S (mixture of isomers)
3. O=S(=O)(N[C@@H]1CCC[C@@H]1S)c1ccc(Oc2ccccc2)cc1
4. O=S(=O)(N[C@H]1CCC[C@@H]1S)c1ccc(Oc2ccccc2)cc1
5. O=C(N[C@H]1CCC[C@@H]1S)c1ccc(Oc2ccccc2)cc1 (racemic)

1: > 100 µM; 2: 0.031 µM; 3: > 200 µM; 4: > 200 µM; 5: > 200 µM

----------
target or test system: Matrix metalloproteinase-9 (Homo sapiens, UniProt P14780)
Sequence (P14780 whole entry): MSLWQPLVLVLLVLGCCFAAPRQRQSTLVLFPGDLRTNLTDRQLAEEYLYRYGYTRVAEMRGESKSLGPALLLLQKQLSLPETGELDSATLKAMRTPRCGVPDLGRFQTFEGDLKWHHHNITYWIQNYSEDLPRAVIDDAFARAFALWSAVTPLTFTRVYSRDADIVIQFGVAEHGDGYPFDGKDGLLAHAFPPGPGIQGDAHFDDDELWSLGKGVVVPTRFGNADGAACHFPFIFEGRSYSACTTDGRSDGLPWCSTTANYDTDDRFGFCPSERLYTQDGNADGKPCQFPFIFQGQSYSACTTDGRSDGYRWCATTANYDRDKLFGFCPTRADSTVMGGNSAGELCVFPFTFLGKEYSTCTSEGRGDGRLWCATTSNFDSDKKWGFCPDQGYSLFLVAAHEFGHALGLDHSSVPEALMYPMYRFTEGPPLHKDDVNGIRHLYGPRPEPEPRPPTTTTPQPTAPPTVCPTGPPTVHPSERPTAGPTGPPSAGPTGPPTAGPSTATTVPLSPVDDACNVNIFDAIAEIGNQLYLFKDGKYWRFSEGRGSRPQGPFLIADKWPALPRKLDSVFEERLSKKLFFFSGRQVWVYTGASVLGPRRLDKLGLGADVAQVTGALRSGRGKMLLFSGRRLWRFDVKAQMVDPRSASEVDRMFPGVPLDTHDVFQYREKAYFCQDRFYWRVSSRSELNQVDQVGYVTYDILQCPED
Criterion: Ki strictly less than 4 nM. Met: Condition met. Not met: Condition not met.

CNC(=O)[C@H](Cc1ccccc1)NC(=O)[C@@H](CC(C)C)S[C@H]1CN(C(=O)CCCCCN2C(=O)c3ccccc3C2=O)C[C@H]1S (mixture of isomers) ... Condition met

Confirm or reject: Ki of O=S(=O)(N[C@H]1CCC[C@@H]1S)c1ccc(-c2ccccc2)cc1 (racemic) lies strictly below 4 nM
Condition not met

Confirm or reject: Ki of O=S(=O)(N[C@H]1CCC[C@@H]1S)c1ccccc1 (racemic) lies strictly below 4 nM
Condition not met

Confirm or reject: Ki of CN([C@H]1CN(C(N)=O)C[C@@H]1S)S(=O)(=O)c1ccc(Oc2ccccc2)cc1 (racemic) lies strictly below 4 nM
Condition met

Confirm or reject: Ki of NCCCCCC(=O)N1C[C@H](NS(=O)(=O)c2ccc(Oc3ccccc3)cc2)[C@@H](O)C1 (racemic) lies strictly below 4 nM
Condition not met

Confirm or reject: Ki of Cl.NCCCCCC(=O)N1C[C@H](NS(=O)(=O)c2ccc(Oc3ccccc3)cc2)[C@@H](S)C1 (racemic) lies strictly below 4 nM
Condition met

----------
target or test system: UniProt P09237
Sequence (P09237 whole entry): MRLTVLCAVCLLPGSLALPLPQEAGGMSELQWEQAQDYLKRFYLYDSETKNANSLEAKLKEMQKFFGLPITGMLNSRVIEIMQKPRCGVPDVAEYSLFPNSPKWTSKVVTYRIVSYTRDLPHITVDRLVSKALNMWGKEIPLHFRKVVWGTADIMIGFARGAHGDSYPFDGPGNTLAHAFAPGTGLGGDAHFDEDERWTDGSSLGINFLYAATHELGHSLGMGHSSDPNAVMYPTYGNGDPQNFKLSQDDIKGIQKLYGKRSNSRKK
pKi: −log10 of the molar value.
quantity name: pKi

// known answers, use as guide
O=C(NCCN1C(=O)c2ccccc2C1=O)N1C[C@H](NS(=O)(=O)c2ccc(Oc3ccccc3)cc2)[C@@H](S)C1 (racemic) ... < 4.92
CNC(=O)[C@H](Cc1ccccc1)NC(=O)[C@@H](CC(C)C)S[C@H]1CN(C(C)=O)C[C@H]1S (mixture of isomers) ... 7.04
CNC(=O)[C@H](Cc1ccccc1)NC(=O)[C@@H](CC(C)C)S[C@H]1CN(C(=O)CCCCCN2C(=O)c3ccccc3C2=O)C[C@H]1S (mixture of isomers) ... 7.96

Please report pKi for every entry that follows.
1. O=S(=O)(N[C@H]1CNC[C@@H]1S)c1ccc(Oc2ccccc2)cc1
2. O=S(=O)(N[C@H]1CCC[C@H]1S)c1ccc(Oc2ccccc2)cc1
3. O=S(=O)(N[C@@H]1CCC[C@@H]1S)c1ccc(Oc2ccccc2)cc1 (racemic)
4. O=C(N[C@H]1CCC[C@@H]1S)c1ccc(Oc2ccccc2)cc1 (racemic)

< 3.70
< 4.00
< 4.70
5.24

// sample O=S(=O)(N[C@H]1CCC[C@@H]1S)c1ccc(Oc2ccccc2)cc1 (racemic) , its pKi was < 4.70

----------
Record form. Attribute: pKi. Fill in for each entry.
target or test system: Interstitial collagenase (Homo sapiens, UniProt P03956)
Sequence (P03956 whole entry): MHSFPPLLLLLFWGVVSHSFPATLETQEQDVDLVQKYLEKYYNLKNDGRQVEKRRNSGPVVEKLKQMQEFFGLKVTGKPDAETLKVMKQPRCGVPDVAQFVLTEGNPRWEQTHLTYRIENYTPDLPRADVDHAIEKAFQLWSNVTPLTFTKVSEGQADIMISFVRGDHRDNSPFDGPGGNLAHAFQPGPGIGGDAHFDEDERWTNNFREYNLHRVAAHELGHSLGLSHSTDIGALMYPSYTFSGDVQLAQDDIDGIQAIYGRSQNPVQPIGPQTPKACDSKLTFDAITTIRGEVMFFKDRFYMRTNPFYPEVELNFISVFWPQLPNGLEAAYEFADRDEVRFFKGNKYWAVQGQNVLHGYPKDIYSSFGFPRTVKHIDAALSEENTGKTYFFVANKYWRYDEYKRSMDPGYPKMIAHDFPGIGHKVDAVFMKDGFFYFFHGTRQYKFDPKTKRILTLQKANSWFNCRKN
pKi: −log10 of the molar value.

// known answers, use as guide
Cl.NCCCCCC(=O)N1C[C@H](NS(=O)(=O)c2ccc(Oc3ccccc3)cc2)[C@@H](S)C1 (racemic) ... < 5.52
O=S(=O)(N[C@H]1CCC[C@@H]1O)c1ccc(Oc2ccccc2)cc1 (racemic) ... < 3.70
O=S(=O)(N[C@@H]1CCC[C@@H]1S)c1ccc(Oc2ccccc2)cc1 ... < 3.70
O=C(N[C@H]1CCC[C@@H]1S)c1ccc(Oc2ccccc2)cc1 (racemic) ... < 3.70

Please report pKi for every entry that follows.
1. NCCCCCC(=O)N1C[C@H](NS(=O)(=O)c2ccc(Oc3ccccc3)cc2)[C@@H](O)C1 (racemic)
2. O=S(=O)(N[C@H]1CCC[C@@H]1S)c1ccccc1 (racemic)
3. O=S(=O)(N[C@@H]1CCC[C@@H]1S)c1ccc(Oc2ccccc2)cc1 (racemic)

1. < 4.30
2. < 4.70
3. < 4.00
